# Test system: HT-22 cells
# test.name: Protective effect on HT-22 cell damage caused by L-glutamate monosodium salt
# Type: cell-based, mouse
# experimental.parameters: Mus musculus, HT-22; Table 2; Conc 2.5 μM; 15 mM L-glutamate, 24 hours; L-Glu alone 27.83; read-out: Visibility %
value.kind: viability at 2.5 µM (%)
Only the number, expressed in %, is required.

*Q* Would you mind telling me what viability at 2.5 µM value was observed for "COC(=O)/C=C/c1ncc[nH]1" ?
*A* 42.7

*Q* Given the entry "CON(C)C(=O)/C=C/c1ccncn1" , report its measured viability at 2.5 µM.
*A* 60.3

*Q* // lookup viability at 2.5 µM for "COC(=O)NC(=O)/C=C/c1cccnc1"
*A* 40.4

*Q* Could you tell me which viability at 2.5 µM is on file for "CN(C)C(=O)/C=C/c1ccncn1" ?
*A* 57.1

*Q* Dear colleague, I am looking for the recorded viability at 2.5 µM of the following compound: "CN(C)C(=O)/C=C/c1nccn1C"
*A* 35.7

*Q* May I ask what viability at 2.5 µM has been recorded for "COC(=O)NC(=O)/C=C/c1ccccn1" ?
*A* 43.1
